// provenance: the RNAGym collection of RNA variant scans (doi:10.7554/elife.80360)

B1: HDV Ribozyme (parent)
chain: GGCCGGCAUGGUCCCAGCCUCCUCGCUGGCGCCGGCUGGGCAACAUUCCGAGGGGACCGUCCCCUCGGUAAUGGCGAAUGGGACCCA

- Variants of: B1
- Experiment Description: self-cleavage, relative activity (ratio to wild type); higher = more cleavage; co-transcriptional
The threshold is inclusive: self-cleavage of exactly 0.3 counts as Met; values below receive Not met.

Can GGCCGGCAUGGUCCCAGCCUCCUCGCUGGCCCCGGCUGGGCAACAUUCCGAGGGGACCGUCCCCUCGGUAAUGGCGAAUGGUACCCA [G31C G82U] be said to have self-cleavage at or above 0.3?
Not met

Can GGCCGGCAUGGUCCCAGCCUCCUCGCUGGCGCCGGCUGGGCAACAUUCCGAGGGGACCGUCCCCUCGGCAAAGGCGAAUGGGACCCA [U69C U72A] be said to have self-cleavage at or above 0.3?
Met

Can GGCCGGCAUGGUCCCAGCCUUCUCGAUGGCGCCGGCUGGGCAACAUUCCGAGGGGACCGUCCCCUCGGUAAUGGCGAAUGGGACCCA [C21U C26A] be said to have self-cleavage at or above 0.3?
Met

Can GGCCGGCAUGGUCCCAGCCUGCUCGUUGGCGCCGGCUGGGCAACAUUCCGAGGGGACCGUCCCCUCGGUAAUGGCGAAUGGGACCCA [C21G C26U] be said to have self-cleavage at or above 0.3?
Not met

Can GGCCGGCAAGGUCCCAGCCUCCUCGCUGGCGCCGGCUGGGCAUCAUUCCGAGGGGACCGUCCCCUCGGUAAUGGCGAAUGGGACCCA [U9A A43U] be said to have self-cleavage at or above 0.3?
Met

Can GGCCGGAAUGGUCCCAGCCUCCUCGUUGGCGCCGGCUGGGCAACAUUCCGAGGGGACCGUCCCCUCGGUAAUGGCGAAUGGGACCCA [C7A C26U] be said to have self-cleavage at or above 0.3?
Met

Can GGCCGGCAUGGUCACAGCCUCCUCGCUGGCGCCGGCUGGGCAACAUUCCGAGGGGACCGUCCCCUCGGUAAUGGCGAAUGGGACCGA [C14A C86G] be said to have self-cleavage at or above 0.3?
Met

Can GGCCGGUAUGGGCCCAGCCUCCUCGCUGGCGCCGGCUGGGCAACAUUCCGAGGGGACCGUCCCCUCGGUAAUGGCGAAUGGGACCCA [C7U U12G] be said to have self-cleavage at or above 0.3?
Met

Can GACCGGCAUGGUCCCAGCCUCCUCGCUGGCGCCGGCUGGGCAACAUUCCGAGGGGACCGUCCCCUCGGUAAUGGCGAAUGGGACCUA [G2A C86U] be said to have self-cleavage at or above 0.3?
Not met

Can GGCCGGCAGGGUCUCAGCCUCCUCGCUGGCGCCGGCUGGGCAACAUUCCGAGGGGACCGUCCCCUCGGUAAUGGCGAAUGGGACCCA [U9G C14U] be said to have self-cleavage at or above 0.3?
Met

Can GGCCGGCAUGGUCCCAGCCUCCUCGCCGGCGCCGGCUGGGCAACAUUCCGAGGGGACCGUCCCCUCGGUAAUGCCGAAUGGGACCCA [U27C G74C] be said to have self-cleavage at or above 0.3?
Met

Can UGCCCGCAUGGUCCCAGCCUCCUCGCUGGCGCCGGCUGGGCAACAUUCCGAGGGGACCGUCCCCUCGGUAAUGGCGAAUGGGACCCA [G1U G5C] be said to have self-cleavage at or above 0.3?
Met

Can GGCCGGCAUGGUCACAGCCUCCUCGCUGGCGCCGGCUGGGCAACAUUCCGCGGGGACCGUCCCCUCGGUAAUGGCGAAUGGGACCCA [C14A A51C] be said to have self-cleavage at or above 0.3?
Met

Can GGCCGCCAUGGUCCCAGCCUCCUCGCUGGCGCCGGCUGGACAACAUUCCGAGGGGACCGUCCCCUCGGUAAUGGCGAAUGGGACCCA [G6C G40A] be said to have self-cleavage at or above 0.3?
Not met

Can GGCCGGCAUGGUCCCAGCCUCCUCGCUGGCGCCGGCUGGGCAACAUUCCGAGGGGACCGUCCCGUCGGUAUUGGCGAAUGGGACCCA [C64G A71U] be said to have self-cleavage at or above 0.3?
Met

Can GGUCUGCAUGGUCCCAGCCUCCUCGCUGGCGCCGGCUGGGCAACAUUCCGAGGGGACCGUCCCCUCGGUAAUGGCGAAUGGGACCCA [C3U G5U] be said to have self-cleavage at or above 0.3?
Not met

Can GGCCGGCAUGGUCCCAGCCUCCUCGCUGGCGCCGGCUGGGCGACAUUCCGAGGGGACCGUCCCCUCGGUAAUGGCGAAUGGGGCCCA [A42G A83G] be said to have self-cleavage at or above 0.3?
Met

Can GGCCGGCAUGGUCCCAGCCUCCUCGCUGGCGCCGGCUGGGCAACAUUCCGAGGGGACCGUCCCCUCGGUUAUGGCAAAUGGGACCCA [A70U G76A] be said to have self-cleavage at or above 0.3?
Met

Can GGCCGGCAUGGUCCCAGCCUCGUCGCUGGCGCCGGCUGGGCAACAUUCCGAGGGGACCGUCCCCUCGGCAAUGGCGAAUGGGACCCA [C22G U69C] be said to have self-cleavage at or above 0.3?
Not met

Can GGCCGGCAUGGUCCCAGCCUCCUCGCUGACGCCGGCUGGGCAACAUUCCGAGGGGACCGUCCCCUCGGAAAUGGCGAAUGGGACCCA [G29A U69A] be said to have self-cleavage at or above 0.3?
Not met

Can GGCCGGCAUGGUCCCAGCCUCCUCGCUGGCCCCGGCUGGGCAACAUUCCGGGGGGACCGUCCCCUCGGUAAUGGCGAAUGGGACCCA [G31C A51G] be said to have self-cleavage at or above 0.3?
Met

Can GGCCGGCAUGGUCCGAGCCUCCUCGCUGGCGCCGGCUGGGCAACAUUCCGAGGGGAACGUCCCCUCGGUAAUGGCGAAUGGGACCCA [C15G C57A] be said to have self-cleavage at or above 0.3?
Met

Can GGCCGGCAUGGUCCCAGCCUCCUCGCUGGCGCCGGCUGGGCAACACUCCGAGGGGACCGUCCCCUCGGUAAUGGUGAAUGGGACCCA [U46C C75U] be said to have self-cleavage at or above 0.3?
Not met

Can GGCCGGCAUGCUCCCAGCCUCCUCGCUCGCGCCGGCUGGGCAACAUUCCGAGGGGACCGUCCCCUCGGUAAUGGCGAAUGGGACCCA [G11C G28C] be said to have self-cleavage at or above 0.3?
Not met

Can GGCCGGCAUGGUGCCAGCCUCCUCGCUGGCGCCGGCUGGGCAACACUCCGAGGGGACCGUCCCCUCGGUAAUGGCGAAUGGGACCCA [C13G U46C] be said to have self-cleavage at or above 0.3?
Not met

Can GGCCGGCAUGGUCCCAGCCUCCUCGCUGGCCCCGGCUGGGCAACAUUCCGAGGGGACCGUGCCCUCGGUAAUGGCGAAUGGGACCCA [G31C C61G] be said to have self-cleavage at or above 0.3?
Not met

Can GGCCGGCAUGGUCCCAGCCUCCUCGCUGGCGCGGGCUGGGCAACAUUCCGAGGGGACCGUCCCCUCGGUAAUGACGAAUGGGACCCA [C33G G74A] be said to have self-cleavage at or above 0.3?
Not met

Can GGCCGGCCUGGUCCCAGCCUCCUCGCUGGCGCCGGCUGGGCAACAUUCCGAGGGGACCGUCCCCUCGGUAAUUGCGAAUGGGACCCA [A8C G73U] be said to have self-cleavage at or above 0.3?
Not met

Can GGCCGGCAUGGUCCCAUCCUCCUCGCUGGCGCCGGCUGGGCAACAUUCCGAGGGGACCGUCCCCUCGGUGAUGGCGAAUGGGACCCA [G17U A70G] be said to have self-cleavage at or above 0.3?
Met

Can GGCCGGCAUGGUCUCAGCCUCCUCGCUGGCGCCGGCUGGGCAACAUUCCGAGGGGGCCGUCCCCUCGGUAAUGGCGAAUGGGACCCA [C14U A56G] be said to have self-cleavage at or above 0.3?
Met

Can GGCCGGCAUGGUCCCAGCCUCCUCGCUGGCACCGGCUGGGCAACAUUCCGAGGGGACCGUCCCCUCGGGAAUGGCGAAUGGGACCCA [G31A U69G] be said to have self-cleavage at or above 0.3?
Not met

Can GGCCGGUAUGGUCCCAGCCUCCUCGCUGGCGCCGGCUGGGCAACAUUCCGAGGGGACCGUCCCCUCGGUAAUGGGGAAUGGGACCCA [C7U C75G] be said to have self-cleavage at or above 0.3?
Not met

Can GGCCGGCAUGGUCCCAGCCUCCUCGCUAGCGCCGGCUGGGCAACAUUCCGAGGGGCCCGUCCCCUCGGUAAUGGCGAAUGGGACCCA [G28A A56C] be said to have self-cleavage at or above 0.3?
Not met

Can GUCCGGCAUGGUCCCAGCCUCCUCGCUGGCGCCGGCUGGGCAACAUUCCGAGGGGACCGUCCCCUCGGGAAUGGCGAAUGGGACCCA [G2U U69G] be said to have self-cleavage at or above 0.3?
Not met

Can GGCCGGCAUGGUCCCAGUCUCCUCGCCGGCGCCGGCUGGGCAACAUUCCGAGGGGACCGUCCCCUCGGUAAUGGCGAAUGGGACCCA [C18U U27C] be said to have self-cleavage at or above 0.3?
Not met

Can GGCCGGUAUGGUCCCAGCCUCCUCGCUGGCGCCCGCUGGGCAACAUUCCGAGGGGACCGUCCCCUCGGUAAUGGCGAAUGGGACCCA [C7U G34C] be said to have self-cleavage at or above 0.3?
Not met

Can GGCCGGCAUGGUCCCAGCCUCCUCGCUGGCGCCGGCUGGCCAACAUUCCGAGGGGACCGUCCCCUCGGAAAUGGCGAAUGGGACCCA [G40C U69A] be said to have self-cleavage at or above 0.3?
Not met

Can GGCCGGCAUGGUCCCAACCUCCUCGCUGGCGCCGGCUGGGCAACAUUCCGAGGGUACCGUCCCCUCGGUAAUGGCGAAUGGGACCCA [G17A G55U] be said to have self-cleavage at or above 0.3?
Met

Can GGCCGGCAUGGUCCCAGCCUCCUCGCUGGCGCCGGCUGGGCAACAUUCCGAGGGGACCGUCCCCUCGGUAUUGGCGUAUGGGACCCA [A71U A77U] be said to have self-cleavage at or above 0.3?
Met

Can GGCCGGCAUGUUCCCAGCCUCCUCGCGGGCGCCGGCUGGGCAACAUUCCGAGGGGACCGUCCCCUCGGUAAUGGCGAAUGGGACCCA [G11U U27G] be said to have self-cleavage at or above 0.3?
Met

Can GGCUGGCAUGGUCCCAGCCUCCUCGCUGGCGCCGGCUGGGCAACAUUCCGAGGGGACCGUCACCUCGGUAAUGGCGAAUGGGACCCA [C4U C62A] be said to have self-cleavage at or above 0.3?
Met

Can GGCCAGCAUGGUCCCAGCCUCCUCGCUGGCGCCGGCUGGGCAACAUUCCGAGGGGACCGACCCCUCGGUAAUGGCGAAUGGGACCCA [G5A U60A] be said to have self-cleavage at or above 0.3?
Not met

Can GGCCGGCAUGGUCCCAGCCUCCUCGCUGGCGCCGGCUGGGCAACAUUCCGAGGGGACCGUUCCCUCGGUAAUGGCGAAUGGGAGCCA [C61U C84G] be said to have self-cleavage at or above 0.3?
Met

Can GGCCGGCAUGGUCCCAGCCACCUCGCUGGCGCCGGCUGGACAACAUUCCGAGGGGACCGUCCCCUCGGUAAUGGCGAAUGGGACCCA [U20A G40A] be said to have self-cleavage at or above 0.3?
Not met

Can GGCCGGCAUGGUCCCAGCCUCCUGGCUGGCGCCGGGUGGGCAACAUUCCGAGGGGACCGUCCCCUCGGUAAUGGCGAAUGGGACCCA [C24G C36G] be said to have self-cleavage at or above 0.3?
Not met

Can GGCAGGCAAGGUCCCAGCCUCCUCGCUGGCGCCGGCUGGGCAACAUUCCGAGGGGACCGUCCCCUCGGUAAUGGCGAAUGGGACCCA [C4A U9A] be said to have self-cleavage at or above 0.3?
Met
